# Tested on: Human immunodeficiency virus 1
# Assay Protocol: Antiviral activity against HIV1 assessed as inhibition of fusion of gp160 expressing human HeLa cells and CCR5-expressing Tat-long terminal repeat luciferase reporter cells
# Assay type: functional, organism-based
# Condition Info: Human immunodeficiency virus 1, HeLa
Property: IC50 (µM)

Param item: "O=C(O)c1ccc(NC(=O)c2cccc(Cc3cccc4cccnc34)c2)c(Cc2cccc(F)c2)c1" ; param system: Human immunodeficiency virus 1; output IC50: 8

Record "O=C(O)c1ccc(NC(=O)c2cccc(Cc3ccc(F)cc3)c2)c(Cc2cccc([N+](=O)[O-])c2)c1" ; system Human immunodeficiency virus 1; IC50 = 8

====

# Assay Protocol: Inhibition of HIV1 gp41 by metallopeptide-based fluorescence assay
# Design: species or system Human immunodeficiency virus 1
Property: Ki (µM)

Note to self: Ki recorded for "O=C(O)c1ccc(NC(=O)c2cccc(Cc3ccc(F)cc3)c2)c(Cc2cccc([N+](=O)[O-])c2)c1" was 1.2

Entry "O=C(O)c1ccc(NC(=O)c2cccc(Cc3cccc4cccnc34)c2)c(Cc2cccc(F)c2)c1" — recorded Ki = 1.15
